SUBJECT OF TEST: MAPKAPK5 (human) (UniProt Q8IW41)
Sequence (Q8IW41 whole entry, looked up): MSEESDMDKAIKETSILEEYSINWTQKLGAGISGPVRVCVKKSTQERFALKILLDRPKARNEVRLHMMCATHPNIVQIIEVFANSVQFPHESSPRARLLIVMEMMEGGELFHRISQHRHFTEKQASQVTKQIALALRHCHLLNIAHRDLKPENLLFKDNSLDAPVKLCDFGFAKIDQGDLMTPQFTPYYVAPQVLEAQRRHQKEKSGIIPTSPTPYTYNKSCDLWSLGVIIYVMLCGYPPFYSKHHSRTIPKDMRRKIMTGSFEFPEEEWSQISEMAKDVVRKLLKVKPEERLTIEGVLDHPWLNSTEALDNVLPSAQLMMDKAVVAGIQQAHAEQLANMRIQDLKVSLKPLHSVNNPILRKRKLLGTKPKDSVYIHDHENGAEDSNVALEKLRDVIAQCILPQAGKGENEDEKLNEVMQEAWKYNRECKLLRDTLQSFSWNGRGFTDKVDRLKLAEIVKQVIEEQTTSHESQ
EXPERIMENT SUMMARY: radiometric filter-binding kinase assay
CONDITION DESCRIPTION: compound 1.0 µM
REPORTED ENDPOINT: residual activity (%)

FC(F)(F)c1ccc(-c2ccc(Oc3cncc4sc(-c5nn[nH]n5)cc34)cc2)cc1
110
NC(=O)c1cc(-c2ccnc(NC3CCCCC3)c2)nc(N2CCNCC2)c1
97
O=c1c(O)c(-c2ccc(O)c(O)c2)oc2cc(O)c(O)c(O)c12
87
c1ccc2c(-c3cnn4cc(-c5ccc(N6CCNCC6)cc5)cnc34)ccnc2c1
100
N#Cc1c(C2CCNCC2)cc(-c2c(O)cccc2OCC2CC2)nc1N
90
NC(=O)c1ccc(-c2ccc(Oc3cncc4sc(-c5nn[nH]n5)cc34)cc2)cc1
104
Cc1ccc(Sc2cnc(Nc3cccc(Br)n3)s2)cc1C(=O)N1CCN(C(=O)CN)CC1
94
CCc1cncnc1N1CCN(Cc2nc3cc(C(F)(F)F)ccc3[nH]2)CC1
97

P: CN1C(=O)[C@@H](Cc2c[nH]c3ccccc23)NC1=S
Q: NC(=O)Nc1ccc2c(c1)/C(=C/c1cc(-c3cccnc3)c[nH]1)C(=O)N2
Task: Which shows the larger residual activity value: P or Q ? Kindly give the label for the entry you pick.
Result: P

###

SUBJECT OF TEST: MAP2K6 (human)
EXPERIMENT SUMMARY: radiometric filter-binding kinase assay
CONDITION DESCRIPTION: compound 1.0 µM
REPORTED ENDPOINT: residual activity (%)

COc1cc2ncn(-c3cc(OCc4ccccc4S(C)(=O)=O)c(C#N)s3)c2cc1OC
91
FC(F)(F)c1ccc(-c2ccc(Oc3cncc4sc(-c5nn[nH]n5)cc34)cc2)cc1
94
COc1ccc(N(C(=O)Nc2c(C)cccc2C)c2cc(Nc3ccc(N4CCN(C)CC4)cc3)ncn2)c(OC)c1
92
CCCCCc1ccc(/C=C/[C@H](O)[C@@H](CO)NC)cc1
98
NCC(=O)Nc1ccc(-n2nc(C(F)(F)F)cc2-c2ccc3c(ccc4ccccc43)c2)cc1
82
Cc1ccc(Sc2cnc(Nc3cccc(Br)n3)s2)cc1C(=O)N1CCN(C(=O)CN)CC1
95
COc1cc(C(=O)N2CCOCC2)c(F)cc1Nc1ncc(C(F)(F)F)c(NC2CC2)n1
71
O=c1c(O)c(-c2ccc(O)c(O)c2)oc2cc(O)c(O)c(O)c12
102
CN(C)C/C=C/C(=O)Nc1cccc(C(=O)Nc2ccc(Nc3nccc(-c4cccnc4)n3)cc2)c1
91

###

Test system: AKT2 (human), P31751 [S474D]
Sequence (P31751 whole entry S474D, looked up): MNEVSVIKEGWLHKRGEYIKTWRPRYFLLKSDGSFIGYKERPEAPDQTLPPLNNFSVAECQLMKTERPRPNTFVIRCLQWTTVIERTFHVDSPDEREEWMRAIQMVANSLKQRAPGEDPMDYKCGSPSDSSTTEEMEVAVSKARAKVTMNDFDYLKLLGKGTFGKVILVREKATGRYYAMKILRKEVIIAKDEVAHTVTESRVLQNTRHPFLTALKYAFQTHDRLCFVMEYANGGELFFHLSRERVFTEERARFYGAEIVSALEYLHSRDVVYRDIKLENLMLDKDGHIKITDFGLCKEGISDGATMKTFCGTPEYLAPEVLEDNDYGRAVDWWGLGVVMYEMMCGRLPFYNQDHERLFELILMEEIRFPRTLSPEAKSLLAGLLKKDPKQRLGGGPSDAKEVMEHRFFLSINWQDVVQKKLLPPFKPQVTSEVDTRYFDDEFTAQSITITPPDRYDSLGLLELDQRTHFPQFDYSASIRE
EXPERIMENT SUMMARY: radiometric filter-binding kinase assay
CONDITION DESCRIPTION: compound 0.1 µM
REPORTED ENDPOINT: residual activity (%)

CN1CCN(CCOc2cc(OC3CCOCC3)c3c(Nc4c(Cl)ccc5c4OCO5)ncnc3c2)CC1
86
O=C(NCCCNc1nc(Nc2cccc(CN3CCOCC3)c2)ncc1C1CC1)C1CCC1
99
Cc1cccc(-c2nn(C(=S)Nc3ccccc3)cc2-c2ccnc3ccccc23)n1
108
CCCCCc1ccc(/C=C/[C@H](O)[C@@H](CO)NC)cc1
85
COc1cc(O)c2c(c1)[C@H]1OC1C[C@H](O)[C@H](O)C(=O)/C=C\C[C@H](C)OC2=O (stereo not given in full)
103

###

SUBJECT OF TEST: MARK2 (human) (UniProt Q7KZI7)
Sequence (Q7KZI7 whole entry, looked up): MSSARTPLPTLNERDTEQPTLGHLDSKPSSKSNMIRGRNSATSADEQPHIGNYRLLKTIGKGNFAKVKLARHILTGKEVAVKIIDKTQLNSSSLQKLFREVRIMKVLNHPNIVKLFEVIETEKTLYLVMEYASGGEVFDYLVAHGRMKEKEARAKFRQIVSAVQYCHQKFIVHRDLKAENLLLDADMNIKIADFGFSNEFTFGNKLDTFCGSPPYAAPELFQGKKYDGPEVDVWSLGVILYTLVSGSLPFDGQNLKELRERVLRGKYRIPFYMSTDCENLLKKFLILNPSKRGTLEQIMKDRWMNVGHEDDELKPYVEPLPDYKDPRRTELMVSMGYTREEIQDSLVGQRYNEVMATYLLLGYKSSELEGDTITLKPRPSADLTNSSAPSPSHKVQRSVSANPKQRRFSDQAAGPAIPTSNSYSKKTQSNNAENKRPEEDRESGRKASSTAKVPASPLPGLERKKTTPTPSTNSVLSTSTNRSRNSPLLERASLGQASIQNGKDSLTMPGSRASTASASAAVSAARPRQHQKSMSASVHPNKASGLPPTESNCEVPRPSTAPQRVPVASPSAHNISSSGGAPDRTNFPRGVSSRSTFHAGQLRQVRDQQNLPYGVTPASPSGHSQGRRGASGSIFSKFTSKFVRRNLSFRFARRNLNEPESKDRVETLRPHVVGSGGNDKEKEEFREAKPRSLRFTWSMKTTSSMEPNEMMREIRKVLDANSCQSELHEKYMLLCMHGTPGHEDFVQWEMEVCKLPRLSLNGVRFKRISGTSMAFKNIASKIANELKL
EXPERIMENT SUMMARY: radiometric filter-binding kinase assay
CONDITION DESCRIPTION: compound 1.0 µM
REPORTED ENDPOINT: residual activity (%)

A selection of reference data follows.
NC1(c2ccc(-c3nc4ccn5c(=O)[nH]nc5c4cc3-c3ccccc3)cc2)CCC1
97
CCCCCc1ccc(/C=C/[C@H](O)[C@@H](CO)NC)cc1
97
FC(F)(F)c1ccc(-c2ccc(Oc3cncc4sc(-c5nn[nH]n5)cc34)cc2)cc1
83
CCn1c(-c2nonc2N)nc2cncc(CNC3CCNCC3)c21
92

A: COc1ccc(-n2ncc3cnc(Nc4cc(OC)c(OC)c(OCCCN5CCN(C)CC5)c4)nc32)cc1
B: O=C(NOC[C@H](O)CO)c1ccc(F)c(F)c1Nc1ccc(I)cc1Cl
C: O=C(NCCCNc1nc(Nc2cccc(CN3CCOCC3)c2)ncc1C1CC1)C1CCC1
Task: Highest residual activity first, then in falling order down to the smallest. Provide the ranking by listing each label in its place in the requested order.
Result: B, A, C
(B: 104%, A: 28%, C: 10%)

###

Tested on: RPS6KB1 (human), P23443 [T412E]
Sequence (P23443 whole entry T412E, looked up): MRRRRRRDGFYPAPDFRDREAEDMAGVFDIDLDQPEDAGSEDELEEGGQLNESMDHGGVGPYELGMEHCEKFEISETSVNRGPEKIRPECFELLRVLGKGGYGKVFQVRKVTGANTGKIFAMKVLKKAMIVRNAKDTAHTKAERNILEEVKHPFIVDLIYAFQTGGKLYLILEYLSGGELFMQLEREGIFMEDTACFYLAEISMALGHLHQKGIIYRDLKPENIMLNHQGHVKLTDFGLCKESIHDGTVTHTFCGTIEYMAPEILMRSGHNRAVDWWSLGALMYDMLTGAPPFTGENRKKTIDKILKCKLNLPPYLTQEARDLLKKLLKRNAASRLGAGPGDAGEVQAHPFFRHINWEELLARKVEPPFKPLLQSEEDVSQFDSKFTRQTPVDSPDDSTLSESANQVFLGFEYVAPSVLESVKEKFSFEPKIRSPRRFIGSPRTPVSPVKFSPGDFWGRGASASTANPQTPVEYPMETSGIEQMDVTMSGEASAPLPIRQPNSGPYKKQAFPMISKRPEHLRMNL
EXPERIMENT SUMMARY: radiometric filter-binding kinase assay
CONDITION DESCRIPTION: compound 1.0 µM
REPORTED ENDPOINT: residual activity (%)

Worked cases, answers included:
CC1=C(CO)C(=O)O[C@@H]([C@@H](C)[C@H]2CC[C@H]3[C@@H]4C[C@H]5O[C@]56[C@@H](O)C=CC(=O)[C@]6(C)C4CC[C@]23C)C1 (stereo not given in full)
97
NC(=O)c1cc2c(-c3cccc(-c4ccccc4)c3)cnc(N)c2s1
90
CC(C)(C#N)c1ccc(N2C(=O)OCc3cnc4ccc(-c5cnc6ccccc6c5)cc4c32)cc1
91

1: C=CC(=O)N1CCC[C@@H](n2nc(-c3ccc(Oc4ccccc4)cc3)c3c(N)ncnc32)C1
2: Cc1cccc(Nc2nn(C)c3ncnc(N)c23)c1
Task: residual activity comparison. Which is larger, 1 or 2 ? Answer format: the label of the selected item.
Result: 2

###

SUBJECT OF TEST: PRKAA1 PRKAB2 PRKAG1 (human) (UniProt O43741+Q13131+P54619)
Sequence (O43741 whole entry, looked up): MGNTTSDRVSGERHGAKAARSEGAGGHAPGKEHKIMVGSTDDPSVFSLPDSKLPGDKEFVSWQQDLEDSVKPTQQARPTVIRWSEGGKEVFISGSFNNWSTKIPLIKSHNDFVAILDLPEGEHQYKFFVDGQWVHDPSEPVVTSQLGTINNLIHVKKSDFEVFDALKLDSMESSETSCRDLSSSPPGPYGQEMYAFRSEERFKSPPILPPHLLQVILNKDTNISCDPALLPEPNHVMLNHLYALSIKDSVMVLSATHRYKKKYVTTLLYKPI
Sequence (P54619 whole entry, looked up): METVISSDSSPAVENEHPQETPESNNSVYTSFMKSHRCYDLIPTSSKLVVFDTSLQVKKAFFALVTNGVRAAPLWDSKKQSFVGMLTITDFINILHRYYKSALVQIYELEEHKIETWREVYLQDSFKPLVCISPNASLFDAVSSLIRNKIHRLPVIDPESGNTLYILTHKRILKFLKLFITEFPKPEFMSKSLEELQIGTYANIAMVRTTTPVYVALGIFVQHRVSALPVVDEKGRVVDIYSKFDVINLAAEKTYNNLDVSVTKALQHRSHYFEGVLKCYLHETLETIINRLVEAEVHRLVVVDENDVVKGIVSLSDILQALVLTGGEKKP
Sequence (Q13131 whole entry, looked up): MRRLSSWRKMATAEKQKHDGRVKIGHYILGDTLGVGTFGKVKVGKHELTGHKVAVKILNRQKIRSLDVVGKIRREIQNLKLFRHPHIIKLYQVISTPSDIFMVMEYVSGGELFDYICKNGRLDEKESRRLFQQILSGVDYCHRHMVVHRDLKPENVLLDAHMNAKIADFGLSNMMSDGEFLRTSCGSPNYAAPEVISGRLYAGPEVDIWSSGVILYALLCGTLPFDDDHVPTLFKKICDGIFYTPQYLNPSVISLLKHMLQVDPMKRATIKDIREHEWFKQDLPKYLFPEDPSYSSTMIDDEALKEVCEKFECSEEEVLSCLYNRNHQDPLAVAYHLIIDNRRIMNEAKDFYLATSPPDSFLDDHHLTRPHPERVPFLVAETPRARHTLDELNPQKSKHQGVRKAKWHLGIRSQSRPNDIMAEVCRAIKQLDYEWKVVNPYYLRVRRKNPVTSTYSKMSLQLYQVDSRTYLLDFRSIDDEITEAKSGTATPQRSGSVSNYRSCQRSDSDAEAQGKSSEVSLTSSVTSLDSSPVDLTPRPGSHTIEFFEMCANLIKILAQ
EXPERIMENT SUMMARY: radiometric filter-binding kinase assay
CONDITION DESCRIPTION: compound 0.1 µM
REPORTED ENDPOINT: residual activity (%)

Illustrative cases are given below, each with its answer.
CN1CCN(CCOc2cc(OC3CCOCC3)c3c(Nc4c(Cl)ccc5c4OCO5)ncnc3c2)CC1
102
CCn1c(-c2nonc2N)nc2cncc(CNC3CCNCC3)c21
115
Cc1ccc(-c2ccc3c(ccc4sc5c(c43)NC[C@@H](C)NC5=O)n2)cn1
68

P: CNC(=O)C1[C@H]2O[C@@](C)([C@@H]1N)n1c3ccccc3c3c4c(c5c6ccccc6n2c5c31)C(=O)NC4 (stereo not given in full)
Q: CC1=C(CO)C(=O)O[C@@H]([C@@H](C)[C@H]2CC[C@H]3[C@@H]4C[C@H]5O[C@]56[C@@H](O)C=CC(=O)[C@]6(C)C4CC[C@]23C)C1 (stereo not given in full)
Task: Lab note: check whether P or Q has the lower measured residual activity. I would appreciate it if you answered with the label of your choice.
Result: P
(P: 3%, Q: 107%)

###

SUBJECT OF TEST: MAPKAPK2 (human) (UniProt P49137)
Sequence (P49137 whole entry, looked up): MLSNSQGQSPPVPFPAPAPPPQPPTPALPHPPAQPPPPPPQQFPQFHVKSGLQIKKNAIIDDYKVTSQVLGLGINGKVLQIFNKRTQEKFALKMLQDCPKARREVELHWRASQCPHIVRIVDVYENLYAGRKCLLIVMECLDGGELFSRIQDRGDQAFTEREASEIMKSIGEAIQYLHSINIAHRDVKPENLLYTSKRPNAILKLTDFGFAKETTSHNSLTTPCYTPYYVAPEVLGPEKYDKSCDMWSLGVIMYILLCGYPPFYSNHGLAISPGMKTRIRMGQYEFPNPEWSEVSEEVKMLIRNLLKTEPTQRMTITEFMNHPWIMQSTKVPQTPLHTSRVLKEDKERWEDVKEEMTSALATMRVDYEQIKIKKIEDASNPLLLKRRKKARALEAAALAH
EXPERIMENT SUMMARY: radiometric filter-binding kinase assay
CONDITION DESCRIPTION: compound 1.0 µM
REPORTED ENDPOINT: residual activity (%)

Solved entries (count: 4):
C=CC(=O)N1CCC[C@@H](n2nc(-c3ccc(Oc4ccccc4)cc3)c3c(N)ncnc32)C1
95
Oc1ccc2ccccc2c1SSc1c(O)ccc2ccccc12
90
COc1ccc(N(C(=O)Nc2c(C)cccc2C)c2cc(Nc3ccc(N4CCN(C)CC4)cc3)ncn2)c(OC)c1
97
COc1ccc(-n2ncc3cnc(Nc4cc(OC)c(OC)c(OCCCN5CCN(C)CC5)c4)nc32)cc1
108

1: O=C(NOC[C@H](O)CO)c1ccc(F)c(F)c1Nc1ccc(I)cc1Cl
2: O=C1NC(=S)N[C@@H]1Cc1c[nH]c2ccccc12
Task: In the pair 1 and 2 , the larger recorded residual activity belongs to which? Identify your pick by its label.
Result: 1

###

SUBJECT OF TEST: EPHA4 (human) (UniProt P54764)
Sequence (P54764 whole entry, looked up): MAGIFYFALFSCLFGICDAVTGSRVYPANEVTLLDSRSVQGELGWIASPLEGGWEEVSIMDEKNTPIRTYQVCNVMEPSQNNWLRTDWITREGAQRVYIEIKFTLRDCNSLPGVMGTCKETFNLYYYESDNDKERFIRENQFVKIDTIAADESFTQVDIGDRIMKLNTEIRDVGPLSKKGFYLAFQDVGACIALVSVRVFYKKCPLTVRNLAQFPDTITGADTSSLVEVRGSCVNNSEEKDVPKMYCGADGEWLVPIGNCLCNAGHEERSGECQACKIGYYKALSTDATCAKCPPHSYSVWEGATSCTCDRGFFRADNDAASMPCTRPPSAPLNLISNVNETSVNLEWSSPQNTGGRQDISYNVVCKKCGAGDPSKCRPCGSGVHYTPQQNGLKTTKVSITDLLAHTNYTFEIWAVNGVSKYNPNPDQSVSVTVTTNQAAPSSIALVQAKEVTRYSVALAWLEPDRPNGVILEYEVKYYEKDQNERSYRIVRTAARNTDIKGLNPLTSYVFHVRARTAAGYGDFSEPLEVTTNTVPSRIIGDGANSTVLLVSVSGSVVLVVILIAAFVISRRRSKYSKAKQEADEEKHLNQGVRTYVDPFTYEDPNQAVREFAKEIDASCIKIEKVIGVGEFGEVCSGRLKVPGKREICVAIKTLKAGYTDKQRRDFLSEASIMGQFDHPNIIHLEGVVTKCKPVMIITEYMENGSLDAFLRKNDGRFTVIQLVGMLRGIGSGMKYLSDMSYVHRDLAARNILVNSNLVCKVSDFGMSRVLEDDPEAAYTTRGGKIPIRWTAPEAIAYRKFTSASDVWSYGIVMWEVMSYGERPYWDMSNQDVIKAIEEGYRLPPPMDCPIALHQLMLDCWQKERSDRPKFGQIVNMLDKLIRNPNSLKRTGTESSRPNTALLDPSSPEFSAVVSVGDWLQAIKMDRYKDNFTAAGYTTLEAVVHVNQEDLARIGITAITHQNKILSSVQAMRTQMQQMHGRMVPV
EXPERIMENT SUMMARY: radiometric filter-binding kinase assay
CONDITION DESCRIPTION: compound 0.1 µM
REPORTED ENDPOINT: residual activity (%)

Worked examples follow.
O=C(O)c1ccc(-c2c[nH]c3ncc(-c4ccccc4)cc23)cc1C1CCCC1
103
CNC(=O)C1[C@H]2O[C@@](C)([C@@H]1N)n1c3ccccc3c3c4c(c5c6ccccc6n2c5c31)C(=O)NC4 (some centres undefined)
61
NC1(c2ccc(-c3nc4ccn5c(=O)[nH]nc5c4cc3-c3ccccc3)cc2)CCC1
107
CN(C)C/C=C/C(=O)Nc1cccc(C(=O)Nc2ccc(Nc3nccc(-c4cccnc4)n3)cc2)c1
92
CC1=C(CO)C(=O)O[C@@H]([C@@H](C)[C@H]2CC[C@H]3[C@@H]4C[C@H]5O[C@]56[C@@H](O)C=CC(=O)[C@]6(C)C4CC[C@]23C)C1 (some centres undefined)
107
Cc1cccc(-c2nn(C(=S)Nc3ccccc3)cc2-c2ccnc3ccccc23)n1
108

a: O=C(NCCCNc1nc(Nc2cccc(CN3CCOCC3)c2)ncc1C1CC1)C1CCC1
b: Cc1ccc(Sc2cnc(Nc3cccc(Br)n3)s2)cc1C(=O)N1CCN(C(=O)CN)CC1
Task: Compare a and b by numeric residual activity and name the larger one. Kindly state the label of the option you pick.
Result: a
(a: 103%, b: 22%)
